Property: max response; scope: individual compounds
test: Cell Viability qHTS for small molecule stabilizers of the endoplasmic reticulum resident proteome (AID 1508629); settings: cell viability counter-screen, 100 nM thapsigargin for final 4 h;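 also: human SH-SY5Y neuroblastoma cells carrying the GLuc-SERCaMP reporter; compound exposure about 46 h in total before the viability read; % is scaled to controls: 0 for no effect and ±100 for the full control effect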
Inconclusive results are not listed.

| COMPOUND | max response [%] |
| --- | --- |
| S=C(Nc1ccccc1)Nc1nccs1 | -3.94 |
| COc1ccc(NS(=O)(=O)c2ccc(I)cc2)cc1N1CCN(C)CC1 | -15.1 |
| CN1CCN(C2=Cc3ccccc3Oc3ccc(Cl)cc32)CC1 | 13.7 |
| CN(C)c1ccc(/C=C2/C(=O)Nc3ccccc32)cc1 | 8.84 |
| O=C(O)C1NCCN(C(=O)c2ccc3c(ccc4ccccc43)c2)C1C(=O)O (centres undefined) | 28.7 |
| CC(C)C[C@H]1C(=O)N2CCC[C@@H]2[C@]2(O)O[C@](NC(=O)[C@@H]3C=C4c5cccc6[nH]c(Br)c(c56)C[C@H]4N(C)C3)(C(C)C)C(=O)N12 | -14.6 |
| O=Nc1c(-c2c(O)[nH]c3ccccc23)[nH]c2ccccc12 | -10.5 |
| N=C(N)SCCN=C(N)N | -2.13 |
| C[C@]12CC3CC(N)(C1)C[C@@](C)(C3)C2 | -0.737 |
